Measured AC50 by item
- target: UniProtKB P35348
- Sequence (P35348 whole entry): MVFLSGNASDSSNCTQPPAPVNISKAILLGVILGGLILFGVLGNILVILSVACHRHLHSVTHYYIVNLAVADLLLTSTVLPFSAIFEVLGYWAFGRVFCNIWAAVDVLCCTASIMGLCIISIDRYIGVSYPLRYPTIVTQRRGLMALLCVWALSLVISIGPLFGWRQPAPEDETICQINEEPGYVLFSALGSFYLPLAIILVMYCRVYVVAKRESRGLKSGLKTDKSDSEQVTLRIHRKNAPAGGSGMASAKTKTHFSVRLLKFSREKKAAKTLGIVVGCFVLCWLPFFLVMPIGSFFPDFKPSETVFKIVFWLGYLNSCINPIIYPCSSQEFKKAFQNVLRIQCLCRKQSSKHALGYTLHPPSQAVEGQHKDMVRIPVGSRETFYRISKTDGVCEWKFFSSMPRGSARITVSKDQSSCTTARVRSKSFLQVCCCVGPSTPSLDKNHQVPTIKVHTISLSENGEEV
- Format: functional, cell-based

Below, each entry is followed by its recorded AC50 result.
molecule	AC50
CC(=O)Nc1c(I)c(C(=O)N[C@H]2C(O)O[C@H](CO)[C@@H](O)[C@@H]2O)c(I)c(N(C)C(C)=O)c1I (some centres undefined) [METRIZAMIDE]	> 30 µM
COc1c(O[C@@H]2O[C@H](CO)[C@@H](O)[C@H](O)[C@H]2O)cc2c(c1OC)-c1ccc(SC)c(=O)cc1[C@@H](NC(C)=O)CC2 [THIOCOLCHICOSIDE]	> 30 µM
Clc1ccc(C(Cn2ccnc2)OCc2ccc(Sc3ccccc3)cc2)c(Cl)c1 (centres undefined) [FENTICONAZOLE]	> 30 µM

Ask | State measured AC50 of the molecule NC(=O)c1ncn([C@@H]2O[C@H](CO)[C@@H](O)[C@H]2O)n1 [RIBAVIRIN] with UniProtKB P35348.
Reply | > 30 µM

Ask | State measured AC50 of the molecule CCSc1ccc2c(c1)N(CCCN1CCN(C)CC1)c1ccccc1S2 [THIETHYLPERAZINE] with UniProtKB P35348.
Reply | 1.6 µM

Ask | State measured AC50 of the molecule C#Cc1cccc(Nc2ncnc3cc(OCCOC)c(OCCOC)cc23)c1 [ERLOTINIB] with UniProtKB P35348.
Reply | > 30 µM

Ask | State measured AC50 of the molecule C[C@H]1Oc2cc(cnc2N)-c2c(nn(C)c2C#N)CN(C)C(=O)c2ccc(F)cc21 [LORLATINIB] with UniProtKB P35348.
Reply | > 30 µM

Ask | State measured AC50 of the molecule CC1(C)O[C@@H]2C[C@H]3[C@@H]4C[C@H](F)C5=CC(=O)C=C[C@]5(C)[C@H]4[C@@H](O)C[C@]3(C)[C@]2(C(=O)CO)O1 [FLUNISOLIDE] with UniProtKB P35348.
Reply | 0.048 µM

Ask | State measured AC50 of the molecule C=CC(N)CCC(=O)O (centres undefined) [VIGABATRIN] with UniProtKB P35348.
Reply | > 30 µM

====

- target: cGMP-inhibited 3',5'-cyclic phosphodiesterase 3A (Homo sapiens); note: assay procedure not described here
- Sequence (Q14432 whole entry): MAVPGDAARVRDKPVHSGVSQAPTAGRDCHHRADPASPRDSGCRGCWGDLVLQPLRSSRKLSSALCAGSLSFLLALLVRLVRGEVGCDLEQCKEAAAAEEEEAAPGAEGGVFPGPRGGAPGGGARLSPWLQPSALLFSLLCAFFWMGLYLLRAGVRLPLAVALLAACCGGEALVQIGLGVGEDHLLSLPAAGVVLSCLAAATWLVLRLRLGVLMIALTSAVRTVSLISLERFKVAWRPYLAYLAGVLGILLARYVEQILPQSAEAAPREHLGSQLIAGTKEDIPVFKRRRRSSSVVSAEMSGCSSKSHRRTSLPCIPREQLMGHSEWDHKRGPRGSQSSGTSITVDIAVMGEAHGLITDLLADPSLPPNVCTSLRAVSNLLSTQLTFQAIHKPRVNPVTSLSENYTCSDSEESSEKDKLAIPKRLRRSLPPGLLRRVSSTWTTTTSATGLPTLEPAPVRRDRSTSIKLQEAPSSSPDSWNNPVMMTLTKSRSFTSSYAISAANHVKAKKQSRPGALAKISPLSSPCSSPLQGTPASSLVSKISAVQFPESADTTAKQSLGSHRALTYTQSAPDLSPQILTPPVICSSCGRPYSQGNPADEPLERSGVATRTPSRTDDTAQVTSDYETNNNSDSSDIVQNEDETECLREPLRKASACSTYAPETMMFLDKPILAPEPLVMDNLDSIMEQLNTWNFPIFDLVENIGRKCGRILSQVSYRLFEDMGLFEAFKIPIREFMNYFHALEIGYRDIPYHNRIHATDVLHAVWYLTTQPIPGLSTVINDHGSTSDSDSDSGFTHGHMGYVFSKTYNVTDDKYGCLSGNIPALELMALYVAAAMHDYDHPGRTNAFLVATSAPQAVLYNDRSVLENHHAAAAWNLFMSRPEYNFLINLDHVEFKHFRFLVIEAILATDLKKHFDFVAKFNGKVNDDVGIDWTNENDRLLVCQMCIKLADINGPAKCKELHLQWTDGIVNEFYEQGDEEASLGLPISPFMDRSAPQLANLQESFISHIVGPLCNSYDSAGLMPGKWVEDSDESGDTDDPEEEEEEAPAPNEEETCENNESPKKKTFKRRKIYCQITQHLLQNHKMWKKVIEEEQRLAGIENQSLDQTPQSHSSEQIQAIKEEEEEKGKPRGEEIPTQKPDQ
- Assay type: functional
measurement.label: AC50

Below, each entry is followed by its recorded AC50 result.
structure.notation	result
C[C@@H](O)[C@H]1C(=O)N2C(C(=O)O)=C([C@H]3CCCO3)S[C@H]12	> 30 µM
Cc1nnc(SCC2=C(C(=O)O)N3C(=O)[C@@H](NC(=O)Cn4cc(Cl)c(=O)c(Cl)c4)[C@H]3SC2)s1	> 30 µM
CC(C)(C)C(=O)NCCCC(=O)O	> 30 µM

Ask | State measured AC50 of the molecule "CC[C@H]1OC(=O)[C@H](C)[C@@H](O[C@H]2C[C@@](C)(OC)[C@@H](O)[C@H](C)O2)[C@H](C)[C@@H](O[C@@H]2O[C@H](C)C[C@H](N(C)C)[C@H]2O)[C@](C)(OC)C[C@@H](C)C(=O)[C@H](C)[C@@H](O)[C@]1(C)O" with cGMP-inhibited 3',5'-cyclic phosphodiesterase 3A (Homo sapiens).
Reply | > 30 µM

Ask | State measured AC50 of the molecule "CNC[C@H](O)c1cccc(O)c1" with cGMP-inhibited 3',5'-cyclic phosphodiesterase 3A (Homo sapiens).
Reply | > 30 µM

Ask | State measured AC50 of the molecule "CN(C)c1cc(CNCC(C)(C)C)c(O)c2c1C[C@H]1C[C@H]3[C@H](N(C)C)C(O)=C(C(N)=O)C(=O)[C@@]3(O)C(O)=C1C2=O" with cGMP-inhibited 3',5'-cyclic phosphodiesterase 3A (Homo sapiens).
Reply | > 30 µM

Ask | State measured AC50 of the molecule "C[n+]1ccccc1/C=N/O" with cGMP-inhibited 3',5'-cyclic phosphodiesterase 3A (Homo sapiens).
Reply | > 30 µM

Ask | State measured AC50 of the molecule "CN1CCC[C@@H]1Cc1c[nH]c2ccc(CCS(=O)(=O)c3ccccc3)cc12" with cGMP-inhibited 3',5'-cyclic phosphodiesterase 3A (Homo sapiens).
Reply | > 30 µM

====

Measured AC50 by item
- target: Beta-2 adrenergic receptor (Homo sapiens, UniProt P07550); note: assay procedure not described here
- Sequence (P07550 whole entry): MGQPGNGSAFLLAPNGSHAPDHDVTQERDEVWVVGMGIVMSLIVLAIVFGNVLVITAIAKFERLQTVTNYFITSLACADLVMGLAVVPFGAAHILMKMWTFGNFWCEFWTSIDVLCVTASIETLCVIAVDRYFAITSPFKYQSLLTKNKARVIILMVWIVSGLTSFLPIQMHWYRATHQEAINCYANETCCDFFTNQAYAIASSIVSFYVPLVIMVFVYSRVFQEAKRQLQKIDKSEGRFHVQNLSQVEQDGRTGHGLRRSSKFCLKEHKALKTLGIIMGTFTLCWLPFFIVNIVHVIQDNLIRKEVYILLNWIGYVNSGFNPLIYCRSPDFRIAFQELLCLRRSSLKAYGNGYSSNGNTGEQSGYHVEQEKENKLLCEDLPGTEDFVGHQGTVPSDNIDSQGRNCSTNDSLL
- Type: functional, cell-based

Below, each entry is followed by its recorded AC50 result.
> print(dat)
                                   molecule   result
1         O=C1NC(=O)C(c2ccccc2)(c2ccccc2)N1  > 30 µM
2  CC(C)N(CCCCOCC(=O)NS(C)(=O)=O)c1cnc(-c2ccccc2)c(-c2ccccc2)n1  > 30 µM
3  [H]/N=C(\N/C(=N/[H])NCCCCCCNC(=N)NC(=N)Nc1ccc(Cl)cc1)Nc1ccc(Cl)cc1  > 30 µM
4                CCCCC1(CC)C(=O)NC(=O)NC1=O  > 30 µM

Ask | Find the measured AC50 of CCCNC(C)C(=O)Nc1ccccc1C (configuration not stated) and report it.
Reply | > 30 µM

Ask | Find the measured AC50 of Cc1cc2nc3c(=O)[nH]c(=O)nc-3n(C[C@H](O)[C@H](O)[C@H](O)COP(=O)(O)O)c2cc1C [RIBOFLAVIN 5'-PHOSPHATE] and report it.
Reply | 2.9 µM

Ask | Find the measured AC50 of "CN(C)c1cc(CNCC(C)(C)C)c(O)c2c1C[C@H]1C[C@H]3[C@H](N(C)C)C(O)=C(C(N)=O)C(=O)[C@@]3(O)C(O)=C1C2=O" and report it.
Reply | > 30 µM

Ask | Find the measured AC50 of "CN1CCN(CCCN2c3ccccc3Sc3ccc(S(=O)(=O)N(C)C)cc32)CC1" and report it.
Reply | > 30 µM

====

Measured AC50 by item
- target: Vascular endothelial growth factor receptor 2 (Homo sapiens); note: assay procedure not described here
- Sequence (P35968 whole entry): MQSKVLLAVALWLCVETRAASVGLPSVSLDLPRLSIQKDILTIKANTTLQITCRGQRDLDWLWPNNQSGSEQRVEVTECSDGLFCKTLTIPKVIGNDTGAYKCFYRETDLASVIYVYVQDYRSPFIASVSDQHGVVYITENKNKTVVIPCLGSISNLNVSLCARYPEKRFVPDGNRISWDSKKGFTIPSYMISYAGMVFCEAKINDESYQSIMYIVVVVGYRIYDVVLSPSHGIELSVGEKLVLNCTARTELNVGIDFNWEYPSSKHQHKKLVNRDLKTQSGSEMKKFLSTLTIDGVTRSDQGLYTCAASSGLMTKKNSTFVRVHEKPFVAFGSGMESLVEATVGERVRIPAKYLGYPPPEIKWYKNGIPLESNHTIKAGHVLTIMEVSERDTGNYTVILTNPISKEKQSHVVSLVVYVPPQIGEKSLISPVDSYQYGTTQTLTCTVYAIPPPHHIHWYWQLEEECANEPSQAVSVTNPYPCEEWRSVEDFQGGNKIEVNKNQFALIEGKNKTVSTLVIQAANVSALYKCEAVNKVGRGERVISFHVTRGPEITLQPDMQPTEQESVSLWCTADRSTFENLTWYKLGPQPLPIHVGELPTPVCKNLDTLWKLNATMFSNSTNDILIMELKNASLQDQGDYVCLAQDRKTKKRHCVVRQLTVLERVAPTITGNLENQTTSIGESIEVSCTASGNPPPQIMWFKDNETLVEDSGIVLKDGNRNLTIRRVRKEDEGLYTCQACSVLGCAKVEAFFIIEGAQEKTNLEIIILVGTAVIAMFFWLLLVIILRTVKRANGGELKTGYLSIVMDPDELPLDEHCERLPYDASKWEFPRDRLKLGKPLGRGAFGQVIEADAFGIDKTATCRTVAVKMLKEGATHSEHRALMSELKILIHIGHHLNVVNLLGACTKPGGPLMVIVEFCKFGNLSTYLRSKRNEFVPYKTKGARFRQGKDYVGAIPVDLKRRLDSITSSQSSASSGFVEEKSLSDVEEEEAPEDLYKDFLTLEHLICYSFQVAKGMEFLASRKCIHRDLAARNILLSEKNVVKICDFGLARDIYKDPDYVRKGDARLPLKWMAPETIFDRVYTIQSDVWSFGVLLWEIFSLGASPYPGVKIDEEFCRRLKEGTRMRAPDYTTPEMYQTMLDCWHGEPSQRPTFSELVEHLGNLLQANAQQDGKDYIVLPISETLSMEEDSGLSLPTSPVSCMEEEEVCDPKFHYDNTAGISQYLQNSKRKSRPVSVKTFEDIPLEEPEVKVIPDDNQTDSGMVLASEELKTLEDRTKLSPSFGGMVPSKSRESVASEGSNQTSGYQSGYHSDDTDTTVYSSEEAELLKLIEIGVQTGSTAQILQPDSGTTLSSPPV
- Type: functional

molecule	result
CC[N+](C)(CC)CCOC(=O)C1c2ccccc2Oc2ccccc21 [METHANTHELINE]	> 30 µM
NC(=O)NCCC[C@H](N)C(=O)O [L-CITRULLINE]	> 30 µM
c1ccc2[nH]c(-c3cscn3)nc2c1 [THIABENDAZOLE]	> 30 µM

Ask | State measured AC50 of the molecule CCOC(=O)c1ccc(OC(=O)CCCCCNC(=N)N)cc1 [GABEXATE] with Vascular endothelial growth factor receptor 2 (Homo sapiens).
Reply | > 30 µM

Ask | State measured AC50 of the molecule Cc1onc(-c2c(Cl)cccc2Cl)c1C(=O)N[C@@H]1C(=O)N2[C@@H]1SC(C)(C)[C@@H]2C(=O)O [DICLOXACILLIN] with Vascular endothelial growth factor receptor 2 (Homo sapiens).
Reply | > 30 µM

Ask | State measured AC50 of the molecule CC(N)CCCC(C)(C)O (centres undefined) [HEPTAMINOL] with Vascular endothelial growth factor receptor 2 (Homo sapiens).
Reply | > 30 µM

Ask | State measured AC50 of the molecule CNC(=O)Oc1ccc2c(c1)[C@]1(C)CCN(C)[C@@H]1N2C [PHYSOSTIGMINE] with Vascular endothelial growth factor receptor 2 (Homo sapiens).
Reply | > 30 µM

Ask | State measured AC50 of the molecule CC(=O)OC(C)OC(=O)C(C)c1ccc(-c2ccccc2)c(F)c1 (centres undefined) with Vascular endothelial growth factor receptor 2 (Homo sapiens).
Reply | > 30 µM

Ask | State measured AC50 of the molecule CC(=O)O[C@H]1C[C@H](O[C@H]2[C@@H](O)C[C@H](O[C@H]3[C@@H](O)C[C@H](O[C@H]4CC[C@@]5(C)[C@H](CC[C@@H]6[C@@H]5C[C@@H](O)[C@]5(C)[C@@H](C7=CC(=O)OC7)CC[C@]65O)C4)O[C@@H]3C)O[C@@H]2C)O[C@H](C)[C@H]1O[C@@H]1O[C@H](CO)[C@@H](O)[C@H](O)[C@H]1O [LANATOSIDE C] with Vascular endothelial growth factor receptor 2 (Homo sapiens).
Reply | > 30 µM

====

Measured AC50 on Mu-type opioid receptor (Homo sapiens, UniProt P35372) follows.
Sequence (P35372 whole entry): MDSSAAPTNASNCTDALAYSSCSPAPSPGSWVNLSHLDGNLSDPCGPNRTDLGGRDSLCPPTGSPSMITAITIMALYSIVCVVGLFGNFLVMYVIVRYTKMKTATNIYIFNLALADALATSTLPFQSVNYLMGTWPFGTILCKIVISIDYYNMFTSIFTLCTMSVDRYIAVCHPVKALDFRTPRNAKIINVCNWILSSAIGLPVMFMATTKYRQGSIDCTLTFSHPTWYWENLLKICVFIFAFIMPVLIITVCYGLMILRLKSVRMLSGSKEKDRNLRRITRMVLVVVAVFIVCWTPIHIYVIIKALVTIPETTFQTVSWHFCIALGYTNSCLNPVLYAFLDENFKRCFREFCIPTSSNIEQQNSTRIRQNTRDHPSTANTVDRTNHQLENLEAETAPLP
I only need the number, in µM, no unit after it.

> print(dat)
                                   compound  unit.descriptor  result
1  O=C(Nc1cccc2c(=O)cc(-c3nnn[nH]3)oc12)c1ccc(OCCCCc2ccccc2)cc1               µM    4.64

We now examine a further compound.
Ask | Find the measured AC50 of C#Cc1cccc(Nc2ncnc3cc(OCCOC)c(OCCOC)cc23)c1 [ERLOTINIB] and report it.
Reply | 3.82

====

Measured AC50 on Melanocortin receptor 4 (Homo sapiens, UniProt P32245) follows.
Sequence (P32245 whole entry): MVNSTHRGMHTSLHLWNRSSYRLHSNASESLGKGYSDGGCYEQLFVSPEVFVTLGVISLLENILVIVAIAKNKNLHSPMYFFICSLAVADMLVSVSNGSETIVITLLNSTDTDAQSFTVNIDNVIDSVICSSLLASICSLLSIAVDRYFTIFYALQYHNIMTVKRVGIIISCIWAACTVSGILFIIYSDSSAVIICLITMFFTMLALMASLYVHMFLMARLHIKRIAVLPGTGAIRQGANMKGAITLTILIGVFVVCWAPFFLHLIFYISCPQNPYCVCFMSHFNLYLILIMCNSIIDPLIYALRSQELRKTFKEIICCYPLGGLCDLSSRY

Below, each entry is followed by its recorded AC50 result.
> print(dat)
                                   compound  measurement.label   result
1         O=C1NC(=O)C(c2ccccc2)(c2ccccc2)N1               AC50  > 30 µM
2  CCN(CC)C(=O)C1CN2CCc3cc(OC)c(OC)cc3C2CC1OC(C)=O (stereo not given) [BENZQUINAMIDE]               AC50  > 10 µM

Ask | Find the measured AC50 of "C#C[C@]1(O)CC[C@H]2[C@@H]3CCc4cc(OC)ccc4[C@H]3CC[C@@]21C" and report it.
Reply | > 10 µM

Ask | Find the measured AC50 of O=C1Nc2ccc(Cl)cc2C(c2ccccc2)=NC1O (stereo not given) and report it.
Reply | > 30 µM

Ask | Find the measured AC50 of CC(=O)/N=c1/sc(S(N)(=O)=O)nn1C [METHAZOLAMIDE] and report it.
Reply | > 10 µM
